Source of measurements: patent US20250263470A1

Listing of entries alongside the reported Neutralization (Ave IC50 ug/ml).
Target: HA of influenza B virus ca B/Ann Arbor/2/94 (yamagata) (influenza B virus B/Ann Arbor/2/94)
Test: cell-based or functional assay
State the answer as a number, implicitly in µg/mL.

Binder	Observed
FBC-39 LTL (antibody, V domains shown) VH: EVQLVESGGGLVKPGGSLRLSCAASGLTFLNAWMSWVRQAPGKGLEWVGRIKSNTDGGTTDYAAPVKGRFTISRDDSKNTLYLQMSSLKTEDTAVYYCTTDGPYSDDFRSGYAARYRYFGMDVWGQGTTVTVSS VL: DIQMTQSPSSVSASVGDRVTITCRASQDISTWLAWYQQKPGKAPKLLIYAASSLQSGVPSRFSGSGSGTDFTLTISSLQPEDFATYYCQQANSFPPTFGQGTKLEIK	0.023

Recorded Neutralization (Ave IC50 ug/ml) (binder FBC-39 FSL (antibody, V domains shown) VH: EVQLVESGGGLVKPGGSLRLSCAASGFSFLNAWMSWVRQAPGKGLEWVGRIKSNTDGGTTDYAAPVKGRFTISRDDSKNTLYLQMSSLKTEDTAVYYCTTDGPYSDDFRSGYAARYRYFGMDVWGQGTTVTVSS VL: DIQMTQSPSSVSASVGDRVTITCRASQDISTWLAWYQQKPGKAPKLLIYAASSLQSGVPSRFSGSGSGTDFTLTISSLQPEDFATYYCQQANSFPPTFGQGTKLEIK ): 0.023

Recorded Neutralization (Ave IC50 ug/ml) (binder FBD-94 (antibody, V domains shown) VH: EVQLVESGGGLVQPGRSLRLSCAVSGFIFEDYAINWVRQAPGKGLEWVSIISWDSGRIGYADSVRGRFTISRDNAKNSSFLQMNSLRPEDTAVYYCVKDMLAYYYDGSGIRYNLYGMDVWGQGTTVTVSS VL: EIVLTQSPATLSLSPGERATLSCRASRSITTFLAWYQQKPGQAPRLLIYDASNRATGVPARFSGSGSGTDFTLTINSLEPDDFAIYYCQQRDHWPPIFGQGTRLEIK ): 0.891

Recorded Neutralization (Ave IC50 ug/ml) (binder FBC-39 FTL (antibody, V domains shown) VH: EVQLVESGGGLVKPGGSLRLSCAASGFTFLNAWMSWVRQAPGKGLEWVGRIKSNTDGGTTDYAAPVKGRFTISRDDSKNTLYLQMSSLKTEDTAVYYCTTDGPYSDDFRSGYAARYRYFGMDVWGQGTTVTVSS VL: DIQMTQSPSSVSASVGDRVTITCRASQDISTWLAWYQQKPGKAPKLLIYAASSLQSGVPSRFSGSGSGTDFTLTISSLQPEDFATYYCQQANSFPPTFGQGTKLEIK ): 0.023
